- experimental target: CRFR1 (Homo sapiens, UniProt P34998)
- Construct: expressed in transfected cells; host or cells: CHO cells, stably transfected
- test method notes: Displacement of 125I-Sauvagine binding, CHO membranes (Example 5)
- conditions: synthesized peptide, as stated in the Summary; read-out: Ki for CRF-R1 (summary statement)
No end group written: not given here.

[
  {
    "substance": "IVLSLDVPIGLLQILLEQARARAAREQATTNARILARVGHC-NH2 [URP (human)]",
    "Ki (nM)": 70
  }
]

----------
- experimental target: CRFR1 (Homo sapiens, UniProt P34998)
- Construct: expressed in transfected cells; host or cells: CHO cells, stably transfected
- Sequence (P34998 24-415): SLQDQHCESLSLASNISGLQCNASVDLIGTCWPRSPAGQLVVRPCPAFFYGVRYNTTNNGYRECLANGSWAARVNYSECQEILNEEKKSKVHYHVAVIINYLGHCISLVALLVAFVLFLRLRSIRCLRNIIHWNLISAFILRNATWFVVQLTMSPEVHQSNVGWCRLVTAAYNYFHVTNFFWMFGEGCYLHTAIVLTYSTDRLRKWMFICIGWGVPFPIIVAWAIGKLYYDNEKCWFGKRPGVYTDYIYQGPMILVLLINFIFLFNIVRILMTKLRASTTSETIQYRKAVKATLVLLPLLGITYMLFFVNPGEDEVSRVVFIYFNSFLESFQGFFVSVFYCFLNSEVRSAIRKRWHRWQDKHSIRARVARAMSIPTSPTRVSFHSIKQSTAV
- test method notes: Radioreceptor assay, displacement of 125I-[Tyr0,Glu1,Nle17]-sauvagine, CHO cell membranes (Example 4)
- conditions: 3-6 experiments, range from SD of log10 values, read-out: CRF-R1 Avg. Ki (nM) (Binding)
No end group written: not given here.

[
  {
    "substance": "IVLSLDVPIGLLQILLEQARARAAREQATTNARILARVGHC-NH2 [URP (human)]",
    "Ki": "> 100 nM"
  }
]

----------
- experimental target: CRFR1 (Homo sapiens, UniProt P34998)
- Construct: expressed in transfected cells; host or cells: CHO cells, stably transfected
- test method notes: Accumulation of intracellular cAMP in stably transfected CHO cells
- Type: cell-based
- conditions: peptides 20 min at 37° C.
No end group written: not given here.
observation type: EC50

[
  {
    "substance": "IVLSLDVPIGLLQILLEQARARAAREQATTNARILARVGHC-NH2 [URP (human)]",
    "observation type": "EC50",
    "experimental result": "> 100 nM"
  }
]

----------
- experimental target: CRFR1 (Homo sapiens)
- Construct: expressed in transfected cells; host or cells: CHO cells, stably transfected
- test method notes: Displacement of 125I-Sauvagine binding, CHO membranes (Example 5)
- conditions: Example 5, FIG. 5; CHO cells; read-out: Disassociation constant (Ki) for CRF-R1
No end group written: not given here.

[
  {
    "substance": "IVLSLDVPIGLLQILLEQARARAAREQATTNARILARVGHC-NH2 [URP (human)]",
    "experimental target": "CRFR1 (Homo sapiens)",
    "Ki / nM": 78
  }
]

----------
- experimental target: CRF-R2 (Mus musculus)
- Construct: expressed in transfected cells; host or cells: CHO cells, stably transfected
- Sequence (Q60748 27-431 isoform Q60748-2 limits assumed): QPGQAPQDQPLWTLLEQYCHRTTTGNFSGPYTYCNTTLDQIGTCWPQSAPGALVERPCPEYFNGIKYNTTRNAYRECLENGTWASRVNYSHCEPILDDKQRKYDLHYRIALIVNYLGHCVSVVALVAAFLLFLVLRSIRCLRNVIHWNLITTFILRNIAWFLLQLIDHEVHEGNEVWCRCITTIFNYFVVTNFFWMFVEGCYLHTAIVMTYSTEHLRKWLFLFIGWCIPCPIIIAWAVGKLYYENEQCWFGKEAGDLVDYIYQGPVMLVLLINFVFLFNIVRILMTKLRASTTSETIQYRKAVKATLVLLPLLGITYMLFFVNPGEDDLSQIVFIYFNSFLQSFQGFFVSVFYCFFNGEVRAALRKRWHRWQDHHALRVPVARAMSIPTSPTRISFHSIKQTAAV
- test method notes: Accumulation of intracellular cAMP in stably transfected CHO cells
- Assay type: cell-based
- conditions: peptides 20 min at 37° C.
No end group written: not given here.

[
  {
    "substance": "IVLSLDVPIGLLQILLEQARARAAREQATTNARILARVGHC-NH2 [URP (human)]",
    "u": "nM",
    "EC50": 0.42
  }
]
